- target-desc: CXCR5 (Homo sapiens)
- Construct: purchased Promega (in-house HiBiT-GPCR construct library, NanoBRET)
- Sequence (P32302 whole entry): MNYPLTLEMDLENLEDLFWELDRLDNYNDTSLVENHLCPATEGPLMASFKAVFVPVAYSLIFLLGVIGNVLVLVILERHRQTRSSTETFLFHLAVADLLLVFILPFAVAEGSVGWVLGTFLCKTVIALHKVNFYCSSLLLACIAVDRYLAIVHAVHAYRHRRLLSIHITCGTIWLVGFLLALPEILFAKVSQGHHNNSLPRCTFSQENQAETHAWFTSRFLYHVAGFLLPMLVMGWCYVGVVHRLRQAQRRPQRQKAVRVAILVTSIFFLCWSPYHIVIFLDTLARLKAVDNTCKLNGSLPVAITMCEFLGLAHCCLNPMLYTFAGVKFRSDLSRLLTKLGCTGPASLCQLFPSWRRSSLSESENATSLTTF
- experiment-description: NanoBRET screen HiBiT-CXCR5 in HEK293
- Type: binding
- particulars: CXCR5; tracer 0.1μM
- Procedure: Each tracer candidate was screened across the entire library of HiBiT-GPCR constructs using NanoBRET as the detection modality. As depicted in Figure 4A, the specificity of interactions was evaluated through decrease in BRET due to competitive displacement of a bound tracer by excess parental compound. Each tracer was analyzed for binding to each HiBiT-GPCR fusion in the absence and in the presence of competing parental compound. […]
For each record, check the reported NanoBRET Fold Response: if it is below 1 write yes, else write no.

Below are worked cases with known answers.
1) COc1ccccc1N1CCN(CCCCN2C(=O)c3ccc(CNC(=O)CCOCCNC(=O)c4ccc(CNC(=O)CCc5ccc6n5[B-](F)(F)[N+]5=C(c7ccc[nH]7)C=CC5=C6)cc4)cc3C2=O)CC1 : no
2) N#CN=C(NCCCOc1cccc(CN2CCCCC2)c1)NCCNC(=O)CCOCCOCCOCCOCCNC(=O)CCc1ccc2n1[B-](F)(F)[N+]1=C(c3ccc[nH]3)C=CC1=C2 : no
3) CC(C)N(CC[C@H](c1ccccc1)c1cc(CCNC(=O)CCOCCOCCOCCOCCNC(=O)CCc2ccc3n2[B-](F)(F)[N+]2=C(c4ccc[nH]4)C=CC2=C3)ccc1O)C(C)C : no
4) CC(C)N(CC[C@H](c1ccccc1)c1cc(CCNC(=O)c2ccc(CNC(=O)CCc3ccc4n3[B-](F)(F)[N+]3=C(c5ccc[nH]5)C=CC3=C4)cc2)ccc1O)C(C)C : yes
5) O=C(CCOCCOCCOCCOCCNC(=O)CCc1ccc2n1[B-](F)(F)[N+]1=C(c3ccc[nH]3)C=CC1=C2)NCCCN1CCN(C2=Nc3ccccc3Oc3ccc(Cl)cc32)CC1 : yes

Q: Is the reported NanoBRET Fold Response for O=C(CCc1ccc2n1[B-](F)(F)[N+]1=C(c3ccc[nH]3)C=CC1=C2)NCc1ccc(C(=O)NCCOCCC(=O)N[C@@H]2CC[C@@]3(O)[C@H]4Cc5ccc(O)c6c5[C@@]3(CCN4CC3CC3)[C@H]2O6)cc1 [Naltrexone-3-NB590] strictly below 1?
Ans: yes

Q: Also check Cc1nc2n(c(=O)c1CCN1CCC(c3noc4cc(F)ccc34)CC1)CCCC2OC(=O)NCCOCCOCCOCCOCCNC(=O)CCc1ccc2n1[B-](F)(F)[N+]1=C(c3ccc[nH]3)C=CC1=C2 (centres unmarked)
Ans: no

Q: Also check "CCCn1c(=O)c2[nH]c(-c3ccc(OCC(=O)NCCNC(=O)CCOCCNC(=O)c4ccc(CNC(=O)CCc5ccc6n5[B-](F)(F)[N+]5=C(c7ccc[nH]7)C=CC5=C6)cc4)cc3)nc2n(CCC)c1=O"
Ans: no

* * *

- target-desc: CX3CR1 (Homo sapiens, UniProt P49238)
- Construct: purchased Promega (in-house HiBiT-GPCR construct library, NanoBRET)
- Sequence (P49238 1-355): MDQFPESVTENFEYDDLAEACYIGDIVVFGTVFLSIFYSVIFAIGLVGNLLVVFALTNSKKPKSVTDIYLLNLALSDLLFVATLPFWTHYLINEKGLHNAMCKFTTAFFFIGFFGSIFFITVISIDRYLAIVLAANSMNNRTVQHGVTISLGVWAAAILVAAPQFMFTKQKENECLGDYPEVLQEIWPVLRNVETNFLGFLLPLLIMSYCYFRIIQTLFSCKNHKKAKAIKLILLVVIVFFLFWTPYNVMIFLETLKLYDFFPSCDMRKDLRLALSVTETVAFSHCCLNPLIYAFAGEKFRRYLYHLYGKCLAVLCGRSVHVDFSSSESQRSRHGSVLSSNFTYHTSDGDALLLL
- experiment-description: NanoBRET screen HiBiT-CX3CR1 in HEK293
- Format: binding
- particulars: CX3CR1; tracer 0.1μM
I would appreciate it if you labelled entries Y when NanoBRET Fold Response is 0.9 or higher, otherwise N.

1. O=C(CCc1ccc2n1[B-](F)(F)[N+]1=C(c3ccc[nH]3)C=CC1=C2)NCc1ccc(C(=O)NCCOCCC(=O)N[C@@H]2CC[C@@]3(O)[C@H]4Cc5ccc(O)c6c5[C@@]3(CCN4CC3CC3)[C@H]2O6)cc1 [Naltrexone-3-NB590] : Y

Q: Determine whether measured NanoBRET Fold Response meets or exceeds 0.9 for "CC(C)N(CC[C@H](c1ccccc1)c1cc(CCNC(=O)c2ccc(CNC(=O)CCc3ccc4n3[B-](F)(F)[N+]3=C(c5ccc[nH]5)C=CC3=C4)cc2)ccc1O)C(C)C"
Ans: Y

Q: Also check "CCCn1c(=O)c2[nH]c(-c3ccc(OCC(=O)NCCNC(=O)CCOCCNC(=O)c4ccc(CNC(=O)CCc5ccc6n5[B-](F)(F)[N+]5=C(c7ccc[nH]7)C=CC5=C6)cc4)cc3)nc2n(CCC)c1=O"
Ans: N

Q: Also check "COc1ccccc1N1CCN(CCCCN2C(=O)c3ccc(CNC(=O)CCOCCOCCOCCOCCNC(=O)CCc4ccc5n4[B-](F)(F)[N+]4=C(c6ccc[nH]6)C=CC4=C5)cc3C2=O)CC1"
Ans: Y

Q: Also check "Cc1cc2c(s1)Nc1ccccc1N=C2N1CCN(CCCNC(=O)CCOCCOCCOCCOCCNC(=O)CCc2ccc3n2[B-](F)(F)[N+]2=C(c4ccc[nH]4)C=CC2=C3)CC1"
Ans: Y

* * *

- target-desc: CCKBR (Homo sapiens, UniProt P32239)
- Construct: purchased Promega (in-house HiBiT-GPCR construct library, NanoBRET)
- Sequence (P32239 1-447): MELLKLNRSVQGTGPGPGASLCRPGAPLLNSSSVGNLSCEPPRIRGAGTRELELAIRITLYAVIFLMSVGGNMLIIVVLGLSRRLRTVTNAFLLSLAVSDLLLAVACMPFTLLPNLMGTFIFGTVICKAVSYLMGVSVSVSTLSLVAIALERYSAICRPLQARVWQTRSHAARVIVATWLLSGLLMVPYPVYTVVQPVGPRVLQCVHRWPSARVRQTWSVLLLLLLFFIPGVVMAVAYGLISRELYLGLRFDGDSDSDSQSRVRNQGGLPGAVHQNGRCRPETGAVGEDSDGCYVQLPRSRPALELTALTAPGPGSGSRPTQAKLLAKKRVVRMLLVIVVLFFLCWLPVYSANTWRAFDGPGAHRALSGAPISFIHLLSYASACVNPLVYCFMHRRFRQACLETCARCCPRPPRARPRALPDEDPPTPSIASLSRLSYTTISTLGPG
- experiment-description: NanoBRET screen HiBiT-CCKBR in HEK293
- Type: binding
- particulars: CCKBR; tracer 1μM
For each record, check the reported NanoBRET Fold Response: if it is below 0.9 write True, else write False.

Below are worked cases with known answers.
1) CC(C)N(CC[C@H](c1ccccc1)c1cc(CCNC(=O)c2ccc(CNC(=O)CCc3ccc4n3[B-](F)(F)[N+]3=C(c5ccc[nH]5)C=CC3=C4)cc2)ccc1O)C(C)C [Tolterodine-BZ-NB590] : False
2) Cc1nc2n(c(=O)c1CCN1CCC(c3noc4cc(F)ccc34)CC1)CCCC2OC(=O)NCCOCCOCCOCCOCCNC(=O)CCc1ccc2n1[B-](F)(F)[N+]1=C(c3ccc[nH]3)C=CC1=C2 (centres unmarked) [Risperidone-2-NB590] : True
3) CCCn1c(=O)c2[nH]c(-c3ccc(OCC(=O)NCCNC(=O)CCOCCNC(=O)c4ccc(CNC(=O)CCc5ccc6n5[B-](F)(F)[N+]5=C(c7ccc[nH]7)C=CC5=C6)cc4)cc3)nc2n(CCC)c1=O [XAC-3-NB590] : True
4) COc1ccccc1N1CCN(CCCCN2C(=O)c3ccc(CNC(=O)CCOCCNC(=O)c4ccc(CNC(=O)CCc5ccc6n5[B-](F)(F)[N+]5=C(c7ccc[nH]7)C=CC5=C6)cc4)cc3C2=O)CC1 [NAN-190-3-NB590] : False

Q: Is the reported NanoBRET Fold Response for O=C(CCc1ccc2n1[B-](F)(F)[N+]1=C(c3ccc[nH]3)C=CC1=C2)NCc1ccc(C(=O)NCCOCCC(=O)N[C@@H]2CC[C@@]3(O)[C@H]4Cc5ccc(O)c6c5[C@@]3(CCN4CC3CC3)[C@H]2O6)cc1 [Naltrexone-3-NB590] strictly below 0.9?
Ans: False

* * *

- target-desc: HTR7 (Homo sapiens, UniProt P34969)
- Construct: purchased Promega (in-house HiBiT-GPCR construct library, NanoBRET)
- Sequence (P34969 whole entry): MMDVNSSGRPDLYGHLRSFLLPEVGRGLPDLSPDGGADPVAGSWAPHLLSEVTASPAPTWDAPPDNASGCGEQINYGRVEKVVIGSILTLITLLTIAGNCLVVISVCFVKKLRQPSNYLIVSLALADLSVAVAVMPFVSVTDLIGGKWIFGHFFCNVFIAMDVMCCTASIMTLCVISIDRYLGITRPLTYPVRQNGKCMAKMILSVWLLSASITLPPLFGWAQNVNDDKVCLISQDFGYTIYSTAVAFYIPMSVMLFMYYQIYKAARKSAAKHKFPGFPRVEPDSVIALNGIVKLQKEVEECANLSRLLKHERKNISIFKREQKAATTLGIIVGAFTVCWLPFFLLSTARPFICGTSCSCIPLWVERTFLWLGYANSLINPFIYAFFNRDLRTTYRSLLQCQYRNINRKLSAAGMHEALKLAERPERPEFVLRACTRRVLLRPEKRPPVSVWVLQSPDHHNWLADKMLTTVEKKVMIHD
- experiment-description: NanoBRET screen HiBiT-HTR7 in HEK293
- Type: binding
- particulars: HTR7; tracer 1μM
Below, each entry is listed alongside its reported NanoBRET Fold Response.
I only need the number, thanks.

// below: answered compounds
1) CCCn1c(=O)c2[nH]c(-c3ccc(OCC(=O)NCCNC(=O)CCOCCNC(=O)c4ccc(CNC(=O)CCc5ccc6n5[B-](F)(F)[N+]5=C(c7ccc[nH]7)C=CC5=C6)cc4)cc3)nc2n(CCC)c1=O [XAC-3-NB590] : 0.96
2) COc1ccccc1N1CCN(CCCCN2C(=O)c3ccc(CNC(=O)CCOCCOCCOCCOCCNC(=O)CCc4ccc5n4[B-](F)(F)[N+]4=C(c6ccc[nH]6)C=CC4=C5)cc3C2=O)CC1 [NAN-190-2-NB590] : 1.10
3) COc1ccccc1N1CCN(CCCCN2C(=O)c3ccc(CNC(=O)CCOCCNC(=O)c4ccc(CNC(=O)CCc5ccc6n5[B-](F)(F)[N+]5=C(c7ccc[nH]7)C=CC5=C6)cc4)cc3C2=O)CC1 [NAN-190-3-NB590] : 1.05

Q: Please report the recorded NanoBRET Fold Response for CC(C)N(CC[C@H](c1ccccc1)c1cc(CCNC(=O)CCOCCOCCOCCOCCNC(=O)CCc2ccc3n2[B-](F)(F)[N+]2=C(c4ccc[nH]4)C=CC2=C3)ccc1O)C(C)C [Tolterodine-2-NB590] .
Ans: 1.07

Q: Also check N#CN=C(NCCCOc1cccc(CN2CCCCC2)c1)NCCNC(=O)CCOCCOCCOCCOCCNC(=O)CCc1ccc2n1[B-](F)(F)[N+]1=C(c3ccc[nH]3)C=CC1=C2 [Aminopotentidine-2-NB590]
Ans: 1.00

Q: Also check O=C(CCc1ccc2n1[B-](F)(F)[N+]1=C(c3ccc[nH]3)C=CC1=C2)NCCOCCOCCNC(=O)OCCOCCN1CCN(C2=Nc3ccccc3Sc3ccccc32)CC1 [Quetiapine-a-2-NB590]
Ans: 1.15

Q: Also check CC(C)N(CC[C@H](c1ccccc1)c1cc(CCNC(=O)c2ccc(CNC(=O)CCc3ccc4n3[B-](F)(F)[N+]3=C(c5ccc[nH]5)C=CC3=C4)cc2)ccc1O)C(C)C [Tolterodine-BZ-NB590]
Ans: 1.03

Q: Also check O=C(CCOCCOCCOCCOCCNC(=O)CCc1ccc2n1[B-](F)(F)[N+]1=C(c3ccc[nH]3)C=CC1=C2)NCCCN1CCN(C2=Nc3ccccc3Oc3ccc(Cl)cc32)CC1 [Loxapine-a-2-NB590]
Ans: 1.30

Q: Also check Cc1nc2n(c(=O)c1CCN1CCC(c3noc4cc(F)ccc34)CC1)CCCC2OC(=O)NCCOCCOCCOCCOCCNC(=O)CCc1ccc2n1[B-](F)(F)[N+]1=C(c3ccc[nH]3)C=CC1=C2 (centres unmarked) [Risperidone-2-NB590]
Ans: 1.19

Q: Also check Cc1cc2c(s1)Nc1ccccc1N=C2N1CCN(CCCNC(=O)CCOCCOCCOCCOCCNC(=O)CCc2ccc3n2[B-](F)(F)[N+]2=C(c4ccc[nH]4)C=CC2=C3)CC1 [Olanzapine-a-2-NB590]
Ans: 1.16

Q: Also check O=C(CCc1ccc2n1[B-](F)(F)[N+]1=C(c3ccc[nH]3)C=CC1=C2)NCc1ccc(C(=O)NCCOCCC(=O)N[C@@H]2CC[C@@]3(O)[C@H]4Cc5ccc(O)c6c5[C@@]3(CCN4CC3CC3)[C@H]2O6)cc1 [Naltrexone-3-NB590]
Ans: 0.97
